# system: HHV-6B U51 (Human herpesvirus 6B, UniProt P52542)
# Sequence (P52542 whole entry, looked up): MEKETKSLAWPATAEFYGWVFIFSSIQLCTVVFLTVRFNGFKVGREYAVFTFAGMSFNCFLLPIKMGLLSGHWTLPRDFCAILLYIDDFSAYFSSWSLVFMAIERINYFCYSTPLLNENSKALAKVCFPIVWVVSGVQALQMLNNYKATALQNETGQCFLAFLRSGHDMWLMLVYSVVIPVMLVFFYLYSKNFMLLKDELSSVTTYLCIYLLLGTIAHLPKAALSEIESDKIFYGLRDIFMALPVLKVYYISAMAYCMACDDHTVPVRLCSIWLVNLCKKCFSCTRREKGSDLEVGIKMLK
# Type: biochemical
# conditions_used: HHV-6B U51 HEK293 membranes, no tetracycline (uninduced)
Please provide measured % Control [35S]GTPγS binding ± SEM, U51 (Unind) for the entries that follow.
Give bare numbers, in %.

Past entries and their recorded results:
molecule: CN1CC[C@]23c4c5ccc(O)c4O[C@H]2[C@@H](O)C=C[C@H]3[C@H]1C5 [Morphine, morphine]
value_observed: 99

molecule: CC(C)[C@H](NC(=O)[C@H](CCC(=O)O)NC(=O)[C@H](Cc1ccccc1)NC(=O)[C@@H](C)NC(=O)[C@@H](N)Cc1ccc(O)cc1)C(=O)N[C@H](C(=O)NCC(N)=O)C(C)C [Deltorphin II]
value_observed: 98

molecule: Oc1ccc2c3c1O[C@H]1c4[nH]c5ccccc5c4C[C@@]4(O)[C@@H](C2)N(CC2CC2)CC[C@]314 [Naltrindole, naltrindole]
value_observed: 98

Annotate the molecule C[C@@H](NC(=O)[C@@H](N)Cc1ccc(O)cc1)C(=O)NCC(=O)N(C)[C@@H](Cc1ccccc1)C(=O)NCCO [DAMGO] with its measured % Control [35S]GTPγS binding ± SEM, U51 (Unind).
96

Attribution: patent US20090181889A1
